Tested on: Plasmodium falciparum
Run description: Antiplasmodial activity against erythrocytic stages of Plasmodium falciparum NF54
Format: functional, organism-based
Parameter: IC50. Scope: all listed entries.
Test readout: IC50 (µM)

>>> recorded_result("CCC(=O)N[C@@H]1C(=O)N[C@H](Cc2ccccc2)C(=O)N[C@H](C)C(=O)N2CCC[C@H]2C(=O)N[C@@H](Cc2c[nH]c3ccccc23)C(=O)O[C@@H]1C")
15.4
>>> recorded_result("C[C@H]1NC(=O)[C@@H](Cc2ccccc2)NC(=O)[C@@H](NC(=O)Cc2ccccc2)[C@@H](C)OC(=O)[C@H](Cc2c[nH]c3ccccc23)NC(=O)[C@@H]2CCCN2C1=O")
0.61

Origin of values: ChEMBL document CHEMBL3232714
